Target: MINK1 (human) (UniProt Q8N4C8)
Sequence (Q8N4C8 whole entry, looked up): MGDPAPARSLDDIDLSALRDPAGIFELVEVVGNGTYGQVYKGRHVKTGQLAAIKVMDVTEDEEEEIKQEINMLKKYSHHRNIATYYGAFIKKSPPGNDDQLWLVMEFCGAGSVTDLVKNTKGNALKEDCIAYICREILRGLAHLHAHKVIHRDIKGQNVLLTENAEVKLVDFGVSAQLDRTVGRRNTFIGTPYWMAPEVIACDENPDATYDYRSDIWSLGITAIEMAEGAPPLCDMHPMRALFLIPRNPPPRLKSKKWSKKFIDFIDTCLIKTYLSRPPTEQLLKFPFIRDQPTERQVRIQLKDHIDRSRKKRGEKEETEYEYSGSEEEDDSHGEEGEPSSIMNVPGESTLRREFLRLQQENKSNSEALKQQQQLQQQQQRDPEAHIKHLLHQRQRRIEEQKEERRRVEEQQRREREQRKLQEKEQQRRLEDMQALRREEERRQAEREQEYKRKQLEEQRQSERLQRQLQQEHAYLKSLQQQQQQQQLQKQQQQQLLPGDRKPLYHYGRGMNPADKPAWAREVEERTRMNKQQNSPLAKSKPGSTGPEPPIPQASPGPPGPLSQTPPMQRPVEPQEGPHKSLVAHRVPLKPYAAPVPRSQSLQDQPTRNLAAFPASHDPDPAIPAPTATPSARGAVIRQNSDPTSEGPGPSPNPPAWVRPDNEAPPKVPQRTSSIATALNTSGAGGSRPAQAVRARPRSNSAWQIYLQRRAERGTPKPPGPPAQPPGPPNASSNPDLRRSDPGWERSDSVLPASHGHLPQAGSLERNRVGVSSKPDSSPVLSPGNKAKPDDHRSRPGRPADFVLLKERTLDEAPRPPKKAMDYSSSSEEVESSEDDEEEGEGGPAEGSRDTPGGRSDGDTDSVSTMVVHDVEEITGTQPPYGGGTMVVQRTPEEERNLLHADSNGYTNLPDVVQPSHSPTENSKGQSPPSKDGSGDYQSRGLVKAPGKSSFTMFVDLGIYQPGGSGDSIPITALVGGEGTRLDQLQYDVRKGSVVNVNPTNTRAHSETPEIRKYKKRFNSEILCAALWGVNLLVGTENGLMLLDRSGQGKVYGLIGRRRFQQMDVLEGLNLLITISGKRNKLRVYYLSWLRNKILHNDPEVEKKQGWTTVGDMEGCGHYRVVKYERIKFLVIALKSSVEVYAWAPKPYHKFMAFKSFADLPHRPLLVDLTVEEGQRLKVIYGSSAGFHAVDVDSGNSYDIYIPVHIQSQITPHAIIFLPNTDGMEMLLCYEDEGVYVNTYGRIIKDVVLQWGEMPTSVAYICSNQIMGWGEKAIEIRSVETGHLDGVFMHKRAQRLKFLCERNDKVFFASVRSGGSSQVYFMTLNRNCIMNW
recorded.metric: pKi
Here pKi is given on a logarithmic scale as minus log10 of the concentration in mol/L.

Note to self: pKi of "O=C1c2ccccc2-c2n[nH]c3cccc1c23" with MINK1 (human) (UniProt Q8N4C8) was 6.70

====

Molecular target: CHEK2 (human)
recorded.metric: pKi
Here pKi is given on a logarithmic scale as minus log10 of the concentration in mol/L.

Note to self: pKi of "CCn1c(=O)/c(=C\Nc2ccccc2)s/c1=C(/C#N)C(=O)O" with CHEK2 (human) was 5.40

====

Biological target: SRC (human)
recorded.metric: Ki

Note to self: Ki of "O=C1c2ccccc2-c2n[nH]c3cccc1c23" with SRC (human) was > 2 µM

====

Target: STK3 (human)
recorded.metric: Ki (nM)
Field format: number, assumed nM, no unit text.

Note to self: Ki of "O=C1c2ccccc2-c2n[nH]c3cccc1c23" with STK3 (human) was 316

====

Target: SGK1 (human) (UniProt O00141)
Sequence (O00141 whole entry, looked up): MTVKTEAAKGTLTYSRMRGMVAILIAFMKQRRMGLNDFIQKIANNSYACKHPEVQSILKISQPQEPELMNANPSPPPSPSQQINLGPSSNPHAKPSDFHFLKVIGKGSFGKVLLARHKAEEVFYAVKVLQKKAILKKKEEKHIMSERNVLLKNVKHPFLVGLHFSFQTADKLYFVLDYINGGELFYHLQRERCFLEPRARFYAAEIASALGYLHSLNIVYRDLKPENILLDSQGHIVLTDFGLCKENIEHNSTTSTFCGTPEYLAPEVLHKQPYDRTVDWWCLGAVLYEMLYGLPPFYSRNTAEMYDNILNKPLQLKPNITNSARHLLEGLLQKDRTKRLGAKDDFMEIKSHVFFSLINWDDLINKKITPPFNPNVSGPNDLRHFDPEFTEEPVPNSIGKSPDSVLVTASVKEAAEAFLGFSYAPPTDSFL
recorded.metric: Ki

NCCCOc1cc2c(c(-c3ccc(Nc4nc5ccccc5o4)cc3)c1)CNC2=O
7.94 µM
FC(F)(F)Oc1ccc(-c2ccc3[nH]cc(C4=CCNCC4)c3c2)cc1
> 10 µM
COc1cc(-c2nn([C@H]3CC[C@H](N4CCN(C(C)=O)CC4)CC3)c3ncnc(N)c23)ccc1NC(=O)c1cc2ccccc2n1C
> 10 µM
Cn1c(NC[C@@H](N)Cc2ccccc2)nc(-c2ccncc2)c(-c2ccc3ccccc3c2)c1=O
> 7.94 µM

Note to self: Ki of "N[C@H](COc1cc(/C=C/c2ccncc2)cnc1Cl)Cc1c[nH]c2ccccc12" with SGK1 (human) (UniProt O00141) was > 10 µM

Note to self: Ki of "COc1cncc(/C=C/c2ccncc2)c1" with SGK1 (human) (UniProt O00141) was > 10 µM

Note to self: Ki of "Cc1ccc(NC(=O)Nc2ccc(-c3csc4ncnc(N)c34)cc2)cc1C" with SGK1 (human) (UniProt O00141) was > 10 µM

Note to self: Ki of "COc1ccc(-c2ccc(NC(=O)Nc3cc(F)cc(F)c3)cc2)c2c(N)noc12" with SGK1 (human) (UniProt O00141) was > 10 µM

Note to self: Ki of "COc1cccc([C@@H](C)NC(=O)N2CC=C(c3c[nH]c4ncccc34)CC2)c1" with SGK1 (human) (UniProt O00141) was 0.02 µM

Note to self: Ki of "CC(=O)Nc1cc(N)c(C#N)c(-c2ccsc2)n1" with SGK1 (human) (UniProt O00141) was > 10 µM

Note to self: Ki of "CN1CCC(NC(=O)c2cc3c(-c4ccccc4)n[nH]c3s2)CC1" with SGK1 (human) (UniProt O00141) was 6.31 µM

Note to self: Ki of "N#Cc1ccc2[nH]c(O)c(-c3ccc(CN4CCOCC4)cn3)c2c1" with SGK1 (human) (UniProt O00141) was 3.16 µM

Note to self: Ki of "O=C(Nc1cnc2[nH]cc(-c3ccccc3)c2c1)c1ccc(Cl)cc1" with SGK1 (human) (UniProt O00141) was 5.01 µM

Note to self: Ki of "O=C(Nc1cnc2[nH]cc(-c3ccccc3)c2c1)c1c(F)cccc1F" with SGK1 (human) (UniProt O00141) was 0.631 µM

Note to self: Ki of "CC(C)OC1=NNC(=O)/C1=C/c1c[nH]c2ccccc12" with SGK1 (human) (UniProt O00141) was > 10 µM

Note to self: Ki of "Nc1ncnc2c1sc1ncnc(N)c12" with SGK1 (human) (UniProt O00141) was 0.158 µM

Note to self: Ki of "N[C@@H](Cc1c[nH]c2ccccc12)C(=O)Nc1cncc(/C=C/c2ccncc2)c1" with SGK1 (human) (UniProt O00141) was 3.16 µM

Note to self: Ki of "NCCNS(=O)(=O)c1cccc(C(=O)Nc2ccc(-c3n[nH]c(=O)c4ccccc34)cc2)c1" with SGK1 (human) (UniProt O00141) was > 10 µM

Note to self: Ki of "O=C1NN=Cc2c[nH]c3cc(NC(=O)[C@@H]4C[C@H]4c4ccccc4)cc1c23" with SGK1 (human) (UniProt O00141) was 0.0398 µM

Note to self: Ki of "C#Cc1cc2c(cc1OC)-c1[nH]nc(-c3ccc(C#N)nc3)c1C2" with SGK1 (human) (UniProt O00141) was > 10 µM

Note to self: Ki of "N[C@@H](Cc1cccc2ccccc12)C(=O)Nc1cncc(/C=C/c2ccncc2)c1" with SGK1 (human) (UniProt O00141) was > 10 µM

Note to self: Ki of CC(C)(C)c1n[nH]c2c1C(c1ccccc1F)C(C#N)=C(N)O2 (stereo not drawn) with SGK1 (human) (UniProt O00141) was > 10 µM

Note to self: Ki of "Cc1c(-c2cccc(OCc3ccccc3)c2)c2c(N)ncnc2n1[C@H]1C[C@H](CN2CCCC2)C1" with SGK1 (human) (UniProt O00141) was > 10 µM

Note to self: Ki of "CCc1nc(-c2cccc(C)c2)c(-c2ccnc(NC(=O)c3ccccc3)c2)s1" with SGK1 (human) (UniProt O00141) was > 10 µM

====

Molecular target: SRMS (human) (UniProt Q9H3Y6)
Sequence (Q9H3Y6 whole entry, looked up): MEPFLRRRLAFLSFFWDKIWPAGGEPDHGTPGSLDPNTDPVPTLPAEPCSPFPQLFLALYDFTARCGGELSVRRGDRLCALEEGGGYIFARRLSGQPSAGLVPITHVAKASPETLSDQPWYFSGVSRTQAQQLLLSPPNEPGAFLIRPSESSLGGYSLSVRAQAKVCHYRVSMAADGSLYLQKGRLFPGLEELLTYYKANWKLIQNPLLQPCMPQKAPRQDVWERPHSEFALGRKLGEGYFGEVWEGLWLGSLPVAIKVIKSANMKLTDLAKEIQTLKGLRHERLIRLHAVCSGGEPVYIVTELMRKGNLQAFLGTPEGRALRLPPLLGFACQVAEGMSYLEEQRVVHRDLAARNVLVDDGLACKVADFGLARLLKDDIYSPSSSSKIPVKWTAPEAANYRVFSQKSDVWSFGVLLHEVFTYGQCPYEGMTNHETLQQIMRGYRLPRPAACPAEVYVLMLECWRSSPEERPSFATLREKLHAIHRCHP
recorded.metric: Ki

Note to self: Ki of "O=C1c2ccccc2-c2n[nH]c3cccc1c23" with SRMS (human) (UniProt Q9H3Y6) was > 1580 nM

====

Below are log10 Ki values recorded for SGK1 (human) (UniProt O00141).
Recorded Ki (log10, µM)

Some molecules with recorded log10 Ki:
NS(=O)(=O)c1cccc(Nc2ncc3ccn(-c4ccccc4)c3n2)c1
0.10
Clc1cc(-c2c[nH]c3ncccc23)nc(NC2CCCCC2)n1
-0.10
N[C@H](COc1cncc(-c2ccc3c(c2)CC(=O)N3)c1)Cc1c[nH]c2ccccc12
0.10
N[C@H](COc1cncc(-c2cc3ccncc3s2)c1)Cc1c[nH]c2ccccc12
-1.30
N[C@H](COc1cncc(/C=C/c2ccncc2)c1)Cc1c[nH]c2ccccc12
0.90
NC(=O)c1cc(-c2ccnc(N)n2)[nH]c1-c1ccc(Cl)cc1F
0.60
Cc1cc(NC(=O)Cc2ccc(-c3cccc4[nH]nc(N)c34)cc2)ccc1F
0.10
O=C(N[C@H](CO)c1ccccc1)c1ccc(-c2ccncc2)cc1
0.20
N[C@H](COc1cncc(-c2cc3cnccc3s2)c1)Cc1c[nH]c2ccccc12
0.00
Cc1n[nH]c2cnc(-c3cncc(OC[C@@H](N)Cc4cccc(C(F)(F)F)c4)c3)cc12
-1.20

Note to self: log10 Ki of "c1cc2cc(-c3ccc4cn[nH]c4c3)cnc2[nH]1" with SGK1 (human) (UniProt O00141) was 0.30

Note to self: log10 Ki of "CCn1c(-c2nonc2N)nc2cnc(Oc3cccc(NC(=O)c4ccc(OCCN5CCOCC5)cc4)c3)cc21" with SGK1 (human) (UniProt O00141) was -0.70

Note to self: log10 Ki of "Cc1n[nH]c2ccc(-c3cncc(OC[C@@H](N)Cc4ccc(Cl)c(Cl)c4)c3)cc12" with SGK1 (human) (UniProt O00141) was -1.10

Note to self: log10 Ki of "CN(C)c1cccc2c(S(=O)(=O)N(CCN)c3cncc(-c4ccc5cnccc5c4)c3)cccc12" with SGK1 (human) (UniProt O00141) was 0.60

Note to self: log10 Ki of "O=C1c2ccccc2-c2n[nH]c3cccc1c23" with SGK1 (human) (UniProt O00141) was -0.60

====

Catalogue of Ki readings, one per entry.
Target: SGK1 (human) (UniProt O00141)

Some compounds with recorded Ki:
O=C(NNC(=S)Nc1ccc(F)cc1)C(O)(c1ccccc1)c1ccccc1
> 10 µM
NS(=O)(=O)c1cccc(Nc2ncc3ccn(Cc4ccccc4)c3n2)c1
3.98 µM
Cc1nn(-c2ccccc2)c2c1c(=O)c1cc(Cl)ccc1n2O
> 10 µM
COc1nccn2c(-c3ccnc(NCC(C)(C)CO)n3)c(-c3ccc(F)cc3F)nc12
> 10 µM
O=C(O)c1ccccc1Nc1ccnc(Nc2ccc3cn[nH]c3c2)n1
0.2 µM
O=C(Nc1cnccn1)Nc1ccnc2ccccc12
1.26 µM
CNC(=O)c1cc(Oc2ccc(NC(=O)Nc3cccc(C(F)(F)F)c3)cc2)ccn1
> 10 µM
CN(C)CC(C)(C)CNc1nccc(-c2c(-c3ccc(F)cc3)nc3cnccn23)n1
> 10 µM

Note to self: Ki of Cc1n[nH]c2c1C(c1ccccc1F)C1=C(CC(C)(C)CC1=O)N2 (configuration not stated) with SGK1 (human) (UniProt O00141) was > 10 µM

Note to self: Ki of "C(=C\c1cncc(O[C@@H]2CCNC2)c1)/c1ccncc1" with SGK1 (human) (UniProt O00141) was > 10 µM

Note to self: Ki of "Cc1ccc2nccc(NC(=O)Nc3cccc(C(F)(F)F)n3)c2c1" with SGK1 (human) (UniProt O00141) was > 10 µM

Note to self: Ki of "CC(C)c1nnc2ccc(-c3c(-c4ccc(F)cc4F)nc4n3CCC4)nn12" with SGK1 (human) (UniProt O00141) was > 10 µM

Note to self: Ki of "NC[C@@H](O)[C@@H](O)Cn1cc(I)c2c(N)ncnc21" with SGK1 (human) (UniProt O00141) was 5.01 µM

Note to self: Ki of "Cc1ccc(NC(=O)Nc2ccc(NC(=O)c3csc4ncnc(N)c34)cc2)cc1" with SGK1 (human) (UniProt O00141) was > 10 µM

Note to self: Ki of "Fc1cnc(Nc2ccccc2)nc1Nc1ccccc1" with SGK1 (human) (UniProt O00141) was > 10 µM

Note to self: Ki of "CCNc1nc2cc(Cl)c(OC)cc2nc1NCC" with SGK1 (human) (UniProt O00141) was > 10 µM

Note to self: Ki of "C[C@]1(O)C[C@@H](c2nc(-c3ccc4ccc(-c5ccccc5)nc4c3)c3c(N)nccn32)C1" with SGK1 (human) (UniProt O00141) was > 10 µM
